Recorded MIC by entry
System: S. aureus ATCC 13709
experimentSummary: MIC, S. aureus ATCC 13709
Assay type: cell-based
conditionInfo: Staphylococcus aureus, ATCC13709, S. aureus; Alamar Blue read after overnight incubation at 35° C.; read-out: MIC Sa

Example entries begin here.
CNc1cccc2c1[nH]c1nc(Sc3cnc4cccnc4c3)nc(N3CCC(CN)C3)c12 (stereo not drawn)	≤ 0.5 µg/mL
CNc1cccc2c1[nH]c1nc(Sc3cnc4ccc[n+]([O-])c4c3)nc(N3CC4CC3CN4)c12 (stereo not drawn)	> 32 µg/mL
CNc1cc(F)cc2c1[nH]c1nc(Oc3cnc(C)nc3)nc(N3CC(N)C(C(F)(F)F)C3)c12 (stereo not drawn)	≤ 0.5 µg/mL

Kindly consider the entry below.
Any idea what its MIC is? The compound is CNc1cc(F)cc2c1[nH]c1nc(Oc3cnc(C(C)(C)C)nc3)nc(N3CC4CC3C[C@H]4N)c12 (stereo partly drawn)
≤ 0.5 µg/mL

---

Test system: S. aureus ATCC 13709
experimentSummary: MIC, S. aureus ATCC 13709
Assay type: cell-based
conditionInfo: Staphylococcus aureus, ATCC13709, S. aureus; Alamar Blue read after overnight incubation at 35° C.; read-out: MIC Sa
quantity: MIC

Example entries begin here.
CNc1cc(F)cc2c1[nH]c1nc(Oc3cnc(OC)nc3)nc(N3C[C@H](N)C4(CC4)C3)c12	≤ 0.5 µg/mL
CNc1cccc2c1[nH]c1nc(Oc3cncc(C#N)c3)cc(N3CC(N)C4(CC4)C3)c12 (centres unmarked)	≤ 0.5 µg/mL
CNc1cccc2c1[nH]c1nc(Sc3cnc4ccc[n+]([O-])c4c3)nc(N3CC(C4(N)CC4)C3)c12	≤ 0.5 µg/mL
CCNc1cccc2c1[nH]c1nc(Sc3cnc4ccc[n+]([O-])c4c3)nc(N3CC4C(N)C4C3)c12 (centres unmarked)	≤ 0.5 µg/mL
CNc1cccc2c1[nH]c1nc(Oc3cncc(F)c3)cc(N3CC4C(N)C4C3)c12 (centres unmarked)	≤ 0.5 µg/mL

Please tell me: MIC of CNc1cccc2c1[nH]c1nc(Oc3cncc(C#N)c3)cc(N3CC4C(N)C4C3)c12 (centres unmarked) , system S. aureus ATCC 13709?
1 µg/mL

Repeat with `CNc1cccc2c1[nH]c1nc(Oc3cncnc3)cc(N3C[C@H](NC)C4(CC4)C3)c12`
≤ 0.5 µg/mL

Repeat with CNc1cc(F)cc2c1[nH]c1nc(Oc3cnc(C(C)O)nc3)nc(N3CC4C[C@@H](N)C4C3)c12 (some centres unmarked)
≤ 0.5 µg/mL

Repeat with CNc1cccc2c1[nH]c1nc(Oc3cncnc3)cc(N3CC(N)C(O)C3)c12 (centres unmarked)
16 µg/mL

Repeat with `CNc1cccc2c1[nH]c1nc(Oc3cnc(C)nc3)cc(N3C[C@H](NC)C4(CC4)C3)c12`
≤ 0.5 µg/mL

Repeat with CNc1cc(F)cc2c1[nH]c1nc(Oc3cnc(C#N)c(C)c3)nc(N3CC4CC3C[C@@H]4N)c12 (some centres unmarked)
≤ 0.5 µg/mL

Repeat with `CNc1cccc2c1[nH]c1nc(Oc3cncnc3)cc(N3CCN(CCN)CC3)c12`
> 64 µg/mL

Repeat with CNc1ncnc2c1[nH]c1nc(Oc3cnc(C)nc3)nc(N3CC4C(N)C4C3)c12 (centres unmarked)
8 µg/mL

Repeat with `CNc1cccc2c1[nH]c1nc(Sc3cnc4cccnc4c3)nc(N3CCN(C(C)=O)CC3)c12`
≤ 0.5 µg/mL
